// reported Inhibition at 50 nM for each item listed
target: T1, hPD-1-Fc (human, UniProt Q15116 25-167); test: blocking ELISA, hPD-1 to hPD-L1; parameters: unit not given here
T1 construct: domain: IgV domain; also called human PD-1-Fc; not shown: human IgG1 Fc
T1 sequence (Q15116 25-167 limits assumed): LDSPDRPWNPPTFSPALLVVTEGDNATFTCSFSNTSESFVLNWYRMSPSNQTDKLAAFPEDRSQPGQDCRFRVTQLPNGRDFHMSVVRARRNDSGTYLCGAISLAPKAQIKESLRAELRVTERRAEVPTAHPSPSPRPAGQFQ
Readout: Inhibition at 50 nM

- 38C11 (antibody, V domains shown) VH: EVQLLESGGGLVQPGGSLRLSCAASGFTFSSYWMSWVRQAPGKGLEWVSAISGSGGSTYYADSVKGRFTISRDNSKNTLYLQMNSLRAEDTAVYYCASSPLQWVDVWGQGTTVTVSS VL: DIQMTQSPSSLSASVGDRVTITCRASQSISRWLAWYQQKPGKAPKLLISDASTVQSGVPSRFSGSGSGTDFTLTISSLQPEDFATYYCQQANSFPFTFGPGTKVDIK: 92.7
- 38A10 (antibody, V domains shown) VH: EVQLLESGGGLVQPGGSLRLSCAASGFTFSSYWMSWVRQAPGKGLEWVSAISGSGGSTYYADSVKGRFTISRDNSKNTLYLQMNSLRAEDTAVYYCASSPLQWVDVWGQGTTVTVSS VL: DIQMTQSPSSLSASVGDRVTITCRASQSISTWLAWYQQKPGKAPKLLIYDASRLQNGVPSRFSGSGSGTDFTLTISSLQPEDFATYYCQQGDSFPFTFGPGTKVDIK: 92.8
- 39G8 (antibody, V domains shown) VH: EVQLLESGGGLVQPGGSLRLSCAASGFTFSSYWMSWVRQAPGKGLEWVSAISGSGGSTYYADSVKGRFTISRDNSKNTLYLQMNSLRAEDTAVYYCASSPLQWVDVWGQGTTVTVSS VL: DIQMTQSPSSLSASVGDRVTITCRASQGISPWLAWYQQKPGKAPKLLIYDASKLETGVPSRFSGSGSGTDFTLTISSLQPEDFATYYCQQAYSFPFTFGGGTKVEIK: 93.2
- 38A11 (antibody, V domains shown) VH: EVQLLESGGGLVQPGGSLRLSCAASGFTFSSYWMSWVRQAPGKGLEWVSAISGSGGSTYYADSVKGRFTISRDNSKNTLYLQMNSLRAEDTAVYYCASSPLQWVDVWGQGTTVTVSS VL: DIQMTQSPSSLSASVGDRVTITCRASQSISSWLAWYQQKPGKAPKLLIYDASTLQSGVPSRFSGSGSGTDFTLTISSLQPEDFATYYCQQGNSFPFTFGPGTKVDIK: 93.2
- 38B2 (antibody, V domains shown, 24H9 derivative, IgG; also called 780_54; hPD1 Ab (38B2)) VH: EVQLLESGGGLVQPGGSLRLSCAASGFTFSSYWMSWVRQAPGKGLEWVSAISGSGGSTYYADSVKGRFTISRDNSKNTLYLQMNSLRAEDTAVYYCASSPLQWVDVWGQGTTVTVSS VL: DIQMTQSPSSLSASVGDRVTITCRASESISSWLAWYQQKPGKAPKLLIYDASSLESGVPSRFSGSGSGTDFTLTISSLQPEDFATYYCQQGDSFPFTFGQGTKLEIK: 93.4
- 38A6 (antibody, V domains shown, also called 780_46) VH: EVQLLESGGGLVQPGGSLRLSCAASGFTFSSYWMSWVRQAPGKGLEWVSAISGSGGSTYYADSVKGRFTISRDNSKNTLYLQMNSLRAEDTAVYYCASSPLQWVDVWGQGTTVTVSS VL: DIQMTQSPSSLSASVGDRVTITCRASQDISRWLGWYQQKPGKAPKLLIYAASTLQSGVPSRFSGSGSGTDFTLTISSLQPEDFATYYCQQANSFPFTFGPGTKLEIK: 91.7
- 32D2 (antibody, V domains shown) VH: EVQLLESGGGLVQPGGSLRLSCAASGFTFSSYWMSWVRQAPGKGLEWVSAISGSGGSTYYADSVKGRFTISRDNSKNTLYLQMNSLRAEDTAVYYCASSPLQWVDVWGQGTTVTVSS VL: DIQMTQSPSSLSASVGDRVTITCRASQGISRWLAWYQQKPGKAPKLLIYEASTLQSGVPSRFSGSGSGTDFTLTISSLQPEDFATYYCQQAYSFPFTFGQGTKVDIK: 91.7
- 39B11 (antibody, V domains shown) VH: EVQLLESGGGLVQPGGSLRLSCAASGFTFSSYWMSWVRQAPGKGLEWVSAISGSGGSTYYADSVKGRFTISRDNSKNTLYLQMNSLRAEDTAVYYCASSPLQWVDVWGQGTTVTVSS VL: DIQMTQSPSSLSASVGDRVTITCRASQSISSWLAWYQQKPGKAPKLLIYEASRLQSGVPSRFSGSGSGTDFTLTISSLQPEDFATYYCQQANSFPFTFGPGTKVDIK: 93.3
- 32A11 (antibody, V domains shown) VH: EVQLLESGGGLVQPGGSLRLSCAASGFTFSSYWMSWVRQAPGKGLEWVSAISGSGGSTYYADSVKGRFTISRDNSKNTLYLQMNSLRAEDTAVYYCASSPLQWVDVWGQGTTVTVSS VL: DIQMTQSPSSLSASVGDRVTITCRASESISIWLAWYQQKPGKAPKLLIYDASNLETGVPSRFSGSGSGTNFTLTISSLQPEDFATYYCQQADSFPFTFGPGTKVDIK: 91.1
- 39B3 (antibody, V domains shown) VH: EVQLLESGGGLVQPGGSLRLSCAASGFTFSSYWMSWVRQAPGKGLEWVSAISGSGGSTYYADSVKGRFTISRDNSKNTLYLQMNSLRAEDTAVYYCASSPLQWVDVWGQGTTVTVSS VL: DIQMTQSPSSLSASVGDRVTITCRASQSIGPWLAWYQQKPGKAPKLLIYDASNLETGVPSRFSGSGSGTDFTLTISSLQPEDFATYYCQQANSFPFTFGPGTKVDIK: 92.9
- 32D11 (antibody, V domains shown) VH: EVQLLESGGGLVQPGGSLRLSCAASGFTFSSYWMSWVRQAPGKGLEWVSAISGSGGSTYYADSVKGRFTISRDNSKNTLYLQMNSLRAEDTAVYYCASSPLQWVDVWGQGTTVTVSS VL: DIQMTQSPSSLSASVGDRVTITCRASQSINIWLAWYQQKPGKAPKLLIYDASNLETGVPSRFSGSGSGTDFTLTISSLQPEDFATYYCQQGYSFPFTFGPGTKVDIK: 91.9
